System: Puccinia triticina
Assay: Wheat brown rust (PUCCRT) disease control on wheat seedlings
Type: in vivo
Set-up: key: A: > 80; B: ≤ 80; C: Not Tested; D: No Activity Observed in the Reported Assay
Conditions: low volume application, 125.1 g/H, 3 Day Curative
Measured Metric: PUCCRT 3DC, LV activity at 125.1 g/H (% Control rating)

INSERT INTO assay_data (structure_smiles_string, experimental_system, endpoint_value) VALUES
  ('COc1ccnc(C(=O)N[C@H](C)C(=O)O[C@H](C)[C@H](Oc2ccccc2)C(C)C)c1OCOC(C)=O', 'Puccinia triticina', 'D'),
  ('COc1ccnc(C(=O)N[C@H](C(=O)O[C@@H](C)[C@H](Oc2ccc(C(F)(F)F)cc2)c2ccccc2)C(C)C)c1OCOC(C)=O', 'Puccinia triticina', 'B (≤ 80)'),
  ('CCC(CC)[C@@H](Oc1cccc(-c2ccccc2)c1)[C@H](C)OC(=O)[C@H](C)NC(=O)c1nccc(OC)c1OCOC(C)=O', 'Puccinia triticina', 'B (≤ 80)');
